- Assay Procedure: inhibition of Cryptococcus neoformans recombinant Can2 after 15 mins by stopped-flow CO2 hydration assay
Parameter: Ki (nM)
Output spec: scalar in nM, unitless text.

Use these answered entries as a reference point.
Smiles Entry	Ki, nM
Cc1ccc(-c2c(C(=O)N[n+]3c(C)cc(C)cc3C)[nH]c3ccc(S(N)(=O)=O)cc23)cc1.[O-][Cl+3]([O-])([O-])[O-]	5.9
Cc1cc(C)[n+](NC(=O)c2[nH]c3ccc(S(N)(=O)=O)cc3c2-c2ccccc2F)c(C)c1.[O-][Cl+3]([O-])([O-])[O-]	16.2
Cc1cc(C)[n+](NC(=O)c2[nH]c3ccc(S(N)(=O)=O)cc3c2-c2ccccc2Cl)c(C)c1.[O-][Cl+3]([O-])([O-])[O-]	15.4
Cc1cc(C)[n+](NC(=O)c2[nH]c3ccc(S(N)(=O)=O)cc3c2-c2cccc(Br)c2)c(C)c1.[O-][Cl+3]([O-])([O-])[O-]	14.3
COc1cccc(-c2c(C(=O)N[n+]3c(C)cc(C)cc3C)[nH]c3ccc(S(N)(=O)=O)cc23)c1.[O-][Cl+3]([O-])([O-])[O-]	8.3

Please give the measured Ki for this compound: Cc1ccccc1-c1c(C(=O)NN)[nH]c2ccc(S(N)(=O)=O)cc12 9.2

Recorded Ki of Cc1cc(C)[n+](NC(=O)c2[nH]c3ccc(S(N)(=O)=O)cc3c2-c2ccccc2)c(C)c1.[O-][Cl+3]([O-])([O-])[O-] , please. 16.5

Any idea what Ki was measured for Cc1cc(C)[n+](NC(=O)c2[nH]c3ccc(S(N)(=O)=O)cc3c2-c2cccc(F)c2)c(C)c1.[O-][Cl+3]([O-])([O-])[O-] ? 8.3

So what's the measured Ki for this one? NNC(=O)c1[nH]c2ccc(S(N)(=O)=O)cc2c1-c1ccccc1F 7.9

For NNC(=O)c1[nH]c2ccc(S(N)(=O)=O)cc2c1-c1ccccc1Cl , what is its reported Ki? 8

Look at this compound and give its reported Ki. Cc1ccc(-c2c(C(=O)NN)[nH]c3ccc(S(N)(=O)=O)cc23)cc1 10.5

May I ask what Ki has been recorded for Cc1cc(C)[n+](NC(=O)c2[nH]c3ccc(S(N)(=O)=O)cc3c2-c2ccccc2C)c(C)c1.[O-][Cl+3]([O-])([O-])[O-] ? 6.5

Endpoint output: Ki of NNC(=O)c1[nH]c2ccc(S(N)(=O)=O)cc2c1-c1cccc(Cl)c1 . Value? 7.4

Endpoint output: Ki of NNC(=O)c1[nH]c2ccc(S(N)(=O)=O)cc2c1-c1ccc(F)cc1 . Value? 8.6

Look up Ki: Cc1cc(C)[n+](NC(=O)c2[nH]c3ccc(S(N)(=O)=O)cc3c2-c2ccc(Br)cc2)c(C)c1.[O-][Cl+3]([O-])([O-])[O-] 10.9

Looking for the measured Ki of Cc1cc(C)[n+](NC(=O)c2[nH]c3ccc(S(N)(=O)=O)cc3c2-c2ccc(Cl)cc2)c(C)c1.[O-][Cl+3]([O-])([O-])[O-] , can you help? 3.1

* * *

- Target Under Test: Carbonic anhydrase (Candida albicans (strain SC5314 / ATCC MYA-2876) (Yeast), UniProt Q5AJ71)
- Sequence (Q5AJ71 whole entry): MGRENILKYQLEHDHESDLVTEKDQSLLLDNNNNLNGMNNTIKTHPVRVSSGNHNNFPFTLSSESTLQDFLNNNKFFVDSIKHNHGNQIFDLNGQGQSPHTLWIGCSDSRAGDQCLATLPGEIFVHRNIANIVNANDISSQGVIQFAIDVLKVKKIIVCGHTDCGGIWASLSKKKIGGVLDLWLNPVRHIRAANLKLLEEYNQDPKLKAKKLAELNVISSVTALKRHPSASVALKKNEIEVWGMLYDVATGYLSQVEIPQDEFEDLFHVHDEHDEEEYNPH
- Assay Procedure: inhibition of Candida albicans recombinant Nce103 after 15 mins by stopped-flow CO2 hydration assay
Parameter: pKi
The meaning of pKi here: minus log10 of the concentration in molar units.

Smiles Entry	pKi
Cc1cc(C)[n+](NC(=O)c2[nH]c3ccc(S(N)(=O)=O)cc3c2-c2ccc(Br)cc2)c(C)c1.[O-][Cl+3]([O-])([O-])[O-]	7.28
Cc1cc(C)[n+](NC(=O)c2[nH]c3ccc(S(N)(=O)=O)cc3c2-c2ccccc2F)c(C)c1.[O-][Cl+3]([O-])([O-])[O-]	7.72
Cc1cc(C)[n+](NC(=O)c2[nH]c3ccc(S(N)(=O)=O)cc3c2-c2cccc(Cl)c2)c(C)c1.[O-][Cl+3]([O-])([O-])[O-]	7.51

Bench note: what pKi did Cc1ccc(-c2c(C(=O)NN)[nH]c3ccc(S(N)(=O)=O)cc23)cc1 show? 7.28

Look up pKi: Cc1ccc(-c2c(C(=O)N[n+]3c(C)cc(C)cc3C)[nH]c3ccc(S(N)(=O)=O)cc23)cc1.[O-][Cl+3]([O-])([O-])[O-] 7.39

What measured pKi goes with NNC(=O)c1[nH]c2ccc(S(N)(=O)=O)cc2c1-c1ccccc1F ? 7.33

Fill in: pKi of Cc1ccccc1-c1c(C(=O)NN)[nH]c2ccc(S(N)(=O)=O)cc12 is ___ 7.11

Given the entry Cc1cccc(-c2c(C(=O)N[n+]3c(C)cc(C)cc3C)[nH]c3ccc(S(N)(=O)=O)cc23)c1.[O-][Cl+3]([O-])([O-])[O-] , report its measured pKi. 7.19

For the compound shown here, Cc1cc(C)[n+](NC(=O)c2[nH]c3ccc(S(N)(=O)=O)cc3c2-c2cccc(Br)c2)c(C)c1.[O-][Cl+3]([O-])([O-])[O-] , give the reported pKi. 7.32

Tell me the measured pKi of Cc1cc(C)[n+](NC(=O)c2[nH]c3ccc(S(N)(=O)=O)cc3c2-c2cccc(F)c2)c(C)c1.[O-][Cl+3]([O-])([O-])[O-] , please. 7.62

// returns reported pKi for input NNC(=O)c1[nH]c2ccc(S(N)(=O)=O)cc2c1-c1ccccc1 7.07

Fill in the blank: the reported pKi of NNC(=O)c1[nH]c2ccc(S(N)(=O)=O)cc2c1-c1cccc(Br)c1 is ____. 7.06

Can you look up the measured pKi of NNC(=O)c1[nH]c2ccc(S(N)(=O)=O)cc2c1-c1cccc(F)c1 for me? 7.27

For Cc1cccc(-c2c(C(=O)NN)[nH]c3ccc(S(N)(=O)=O)cc23)c1 , what is its reported pKi? 7.37
